target_desc: T1, 重组人GAS6 his 蛋白(Novoprotein，Cat#C01W) (human, UniProt Q14393 31-678, limits assumed)
T1 construct: Bought protein; not shown: His tag
T1 sequence (looked up): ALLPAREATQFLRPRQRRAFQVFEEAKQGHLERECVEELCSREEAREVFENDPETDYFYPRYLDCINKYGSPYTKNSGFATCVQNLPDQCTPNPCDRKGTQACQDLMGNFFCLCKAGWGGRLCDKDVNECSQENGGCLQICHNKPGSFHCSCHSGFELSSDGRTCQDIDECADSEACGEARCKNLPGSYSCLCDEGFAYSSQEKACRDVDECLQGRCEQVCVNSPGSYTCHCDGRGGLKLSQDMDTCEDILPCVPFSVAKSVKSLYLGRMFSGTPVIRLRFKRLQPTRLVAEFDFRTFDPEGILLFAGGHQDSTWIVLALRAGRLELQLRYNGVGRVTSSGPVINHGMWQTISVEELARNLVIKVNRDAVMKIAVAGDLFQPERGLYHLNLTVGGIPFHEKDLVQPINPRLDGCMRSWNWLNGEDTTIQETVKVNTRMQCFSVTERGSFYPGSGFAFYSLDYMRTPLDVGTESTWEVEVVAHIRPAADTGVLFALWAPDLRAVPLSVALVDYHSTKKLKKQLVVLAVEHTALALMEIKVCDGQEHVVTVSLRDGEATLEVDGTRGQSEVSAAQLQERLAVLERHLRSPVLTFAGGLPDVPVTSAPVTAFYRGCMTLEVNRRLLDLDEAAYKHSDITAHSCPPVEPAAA
protocol_summary: ELISA, coated human GAS6 his 0.5 ug/ml
pEC50: −log10 of the molar value.
Listing: pEC50 of selected binders
measured_endpoint: pEC50

{"binder": "ch2O18G6 (antibody, human IgG1, kappa, V domains shown, Human-mouse chimeric antibody, hIgG1 (G1m3) / human kappa (Km3), made in HEK293; also called ch2O18G6-IgG) VH: QVQLQQSGPELVKPGASVKISCKTSGNTFTEYIMHWVKQSHGKSLEWIGGINPKNGGTSYNQKFKGKATLTVDKSSRTAYMELRSLTSEDSAVYYCARVRIPPYVYYAMDYWGQGTTVTVSS VL: DVVVTQTPLSLPVSLGDQASISCRSSQSIVHSNGNTYLEWYLQKPGQSPKLLIYKVSNRFSGVPDRFSGSGSGTDFTLKISRVEAEDLGVYYCFQGSHVPYTFGGGTKLEIKR", "recorded_result": 9.68}
{"binder": "ch15G5E5 (antibody, human IgG1, kappa, V domains shown, Human-mouse chimeric antibody, hIgG1 (G1m3) / human kappa (Km3), made in HEK293; also called ch15G5E5-IgG) VH: EVQLQQSGPELVKPGASVKMSCKASGYTFTDDYMKWVKQSHGKSLEWIGDINPNNGGTIYNQKFKGKAILTVDKSSSTAYMQLNSLTSEDSAVYYCARRGRGSWGQGTTVTVSS VL: DVLMTQTPLSLPVSLGDQASISCRSSQSIVYSNGNTYLEWYLQKPGQSPKLLIYRVSNRFSGVPDRFSGSGSGTDFTLKISRVEAEDLGIYYCFQGSHVPLTFGAGTKLELKR", "recorded_result": 9.80}
{"binder": "ch18I16C6 (antibody, human IgG1, kappa, V domains shown, Human-mouse chimeric antibody, hIgG1 (G1m3) / human kappa (Km3), made in HEK293; also called ch18I16C6-IgG) VH: EVKIEESGGGLVKPGGSLKLSCAASGFTFSSYAMSWFRQTPEKRLEWVASISSGGNSYYPDSVKGRFTISRDNARNILYLQMSSLRSEDTAMYYCSRTPDYWGQGTTVTVSS VL: DVVMTQSPSSMCASLGERVTITCKASQDINTYLSWFQQKPGKSPKTLIYRANRLVDGVPSRFSGSGSGQDYSLTISSLEYEDMGIYYCLQYDEFPFTFGSGTKLEIKR", "recorded_result": 9.96}
